Tested on: MDA-MB-468
Procedure Details: In vitro cytotoxicity assay (CCK-8) in MDA-MB-468
Type: cell-based
Protocol Conditions: Homo sapiens, toxins (expected metabolites of the ADCs), 120 hours
pIC50: −log10 of the molar value.
pIC50 for assorted compounds

{"Compound": "CC[C@@]1(O)C(=O)OCc2c1cc1n(c2=O)Cc2cc3c(CCCCO)c(C)c(F)cc3nc2-1 [MB-1]", "Target System": "MDA-MB-468", "Comparison Operator": "=", "pIC50": 9.38}
{"Compound": "CCc1c2c(nc3cc(F)c(C)c(CCCCO)c13)-c1cc3c(c(=O)n1C2)COC(=O)[C@]3(O)CC", "Target System": "MDA-MB-468", "Comparison Operator": "<", "pIC50": 7.52}
